system name: recombinant human oxytocin receptors (Homo sapiens)
Construct: expressed in transfected cells; host or cells: HEK-293, transient expression; lysed and homogenized cells
Sequence (P30559 whole entry): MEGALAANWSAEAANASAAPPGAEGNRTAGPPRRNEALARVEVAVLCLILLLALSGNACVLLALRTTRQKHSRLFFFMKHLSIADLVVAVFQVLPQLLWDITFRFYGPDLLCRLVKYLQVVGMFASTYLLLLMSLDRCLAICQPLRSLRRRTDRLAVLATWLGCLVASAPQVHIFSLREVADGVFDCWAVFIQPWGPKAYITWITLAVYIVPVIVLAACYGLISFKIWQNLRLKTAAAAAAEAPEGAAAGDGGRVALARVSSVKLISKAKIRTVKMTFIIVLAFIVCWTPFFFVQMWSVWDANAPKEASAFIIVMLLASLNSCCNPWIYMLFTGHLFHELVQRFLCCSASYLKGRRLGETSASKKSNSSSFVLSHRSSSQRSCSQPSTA
measurement protocol: Oxytocin receptor binding assay (3H-oxytocin, HEK-293 cells)
condition details: selectivity quotient, human OT vs human V1b
measurement name: Ki(h-OT)/Ki(h-V1b)*

Below: 5 compounds and their reported Ki(h-OT)/Ki(h-V1b)*.
>>> result("CCOc1ncccc1C1(Nc2ccc(N3CCN(C)CC3)nc2)C(=O)N(S(=O)(=O)c2ccc(OC)cc2)c2ccc(I)cc21 (stereo not drawn)")
"++ (25-75)"
>>> result("CCOc1ncccc1C1(NCc2ccc(N3CCN(C)CC3)cc2)C(=O)N(S(=O)(=O)c2ccc(OC)cc2)c2cc(F)c(F)cc21 (stereo not drawn)")
"++ (25-75)"
>>> result("CCOc1ncccc1C1(Nc2ccc(N3CCN(CC)CC3)cc2)C(=O)N(S(=O)(=O)c2ccc(OC)cc2)c2ccc(C#N)cc21 (stereo not drawn)")
"+++ (>75)"
>>> result("CCOc1ncccc1C1(NCc2ccc(N3CCN(C)CC3)cc2)C(=O)N(S(=O)(=O)c2cccc(OC)c2)c2ccc(C#N)cc21 (stereo not drawn)")
"+ (10-<25)"
>>> result("CCOc1ncccc1C1(OC(=O)c2ccc(N3CCN(C)CC3)cc2)C(=O)N(S(=O)(=O)c2ccc(OC)cc2OC)c2ccc(C#N)cc21 (stereo not drawn)")
"+ (10-<25)"

Now turn to the next compound.
I have this compound here, CCOc1ncccc1C1(NCc2ccc(N3CCN(C)CC3)cc2)C(=O)N(S(=O)(=O)c2ccc(OC)cc2)c2cc(F)c(C#N)cc21 (stereo not drawn) , and I need its recorded Ki(h-OT)/Ki(h-V1b)*.
+++ (>75)

---

system name: human vasopressin V1a receptor (Homo sapiens, UniProt P37288)
Sequence (P37288 whole entry): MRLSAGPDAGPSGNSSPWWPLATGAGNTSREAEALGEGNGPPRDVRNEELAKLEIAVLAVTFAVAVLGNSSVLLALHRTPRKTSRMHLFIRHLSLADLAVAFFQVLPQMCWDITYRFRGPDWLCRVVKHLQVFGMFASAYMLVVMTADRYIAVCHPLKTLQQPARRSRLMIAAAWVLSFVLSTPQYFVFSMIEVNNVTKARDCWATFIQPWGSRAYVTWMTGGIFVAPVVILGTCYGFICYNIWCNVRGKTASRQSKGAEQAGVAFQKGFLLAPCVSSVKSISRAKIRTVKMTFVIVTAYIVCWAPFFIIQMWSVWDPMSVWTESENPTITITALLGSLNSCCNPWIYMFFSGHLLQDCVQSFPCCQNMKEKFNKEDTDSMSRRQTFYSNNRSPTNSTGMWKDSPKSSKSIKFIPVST
measurement protocol: Vasopressin V1a receptor binding assay (125I-AVP displacement, CHO-K1 membranes)
condition details: selectivity quotient, human V1a vs human V1b
measurement name: Ki(h-V1a)/Ki(h-V1b)*

Below: 5 compounds and their reported Ki(h-V1a)/Ki(h-V1b)*.
>>> result("CCOc1ncccc1C1(NC(=O)c2ccc(N3CCN(CC)CC3)cc2)C(=O)N(S(=O)(=O)c2ccc(OC)cc2)c2ccc(C#N)cc21 (stereo not drawn) [Example 5]")
"+++ (>75)"
>>> result("CCOc1ncccc1C1(NCc2cccc(N3CCN(C)CC3)c2)C(=O)N(S(=O)(=O)c2ccc(OC)cc2)c2ccc(C#N)cc21 (stereo not drawn) [Example 43]")
"+++ (>75)"
>>> result("CCOc1ncccc1C1(NCc2ccc(N3CCN(C)CC3)cc2)C(=O)N(S(=O)(=O)c2ccc(C#N)cc2)c2ccc(C#N)cc21 (stereo not drawn) [Example 28]")
"+ (10-<25)"
>>> result("CCOc1ncccc1C1(NCc2ccc(N3CCN(CC)CC3)cc2)C(=O)N(S(=O)(=O)c2ccc(OC)cc2)c2cc(F)c(C#N)cc21 (stereo not drawn) [Example 35]")
"+ (10-<25)"
>>> result("CCOc1ncccc1C1(NC(=O)c2ccc(N3CCN(C)CC3)cc2)C(=O)N(S(=O)(=O)c2ccc(OC)cc2OC)c2ccc(C#N)cc21 (stereo not drawn) [Example 6]")
"+++ (>75)"

I have this compound here, CCOc1ncccc1C1(NCc2ccc(N3CCN(C)CC3)cc2)C(=O)N(S(=O)(=O)c2ccccc2)c2ccc(C#N)cc21 (stereo not drawn) [Example 27] , and I need its recorded Ki(h-V1a)/Ki(h-V1b)*.
+ (10-<25)
